- experimental target: Dihydrofolate reductase (Gallus gallus, UniProt P00378)
- Sequence (P00378 whole entry): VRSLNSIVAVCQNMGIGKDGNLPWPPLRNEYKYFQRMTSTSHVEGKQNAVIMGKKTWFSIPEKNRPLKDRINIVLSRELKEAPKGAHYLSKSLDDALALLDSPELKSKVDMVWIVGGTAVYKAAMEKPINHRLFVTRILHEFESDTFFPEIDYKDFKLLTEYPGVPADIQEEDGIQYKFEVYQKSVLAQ
pIC50: −log10 of the molar value.
# pIC50 listing for each entry below
test readout: pIC50

# smiles string, experimental target, measured number
records = [
    ("COc1ccc(Cc2cnc(N)nc2N)cc1OC", "Dihydrofolate reductase (Gallus gallus, UniProt P00378)", 3.52),
    ("CCc1cc(Cc2cnc(N)nc2N)cc(CC)c1CC", "Dihydrofolate reductase (Gallus gallus, UniProt P00378)", 4.48),
    ("CCc1ccc(Cc2cnc(N)nc2N)cc1CC", "Dihydrofolate reductase (Gallus gallus, UniProt P00378)", 3.92),
]

====

- Tested on: Proteus vulgaris
- protocol notes: In vitro antibacterial activity against Proteus vulgaris (CN3296)
Please use met for MIC under 100 µg/mL and not met for everything else, ties included.

# smiles string, discrete label
records = [
    ("COc1ccc(Cc2cnc(N)nc2N)cc1OC", "met"),
    ("CC(C)c1ccc(Cc2cnc(N)nc2N)cc1", "not met"),
    ("CCc1ccc(Cc2cnc(N)nc2N)cc1", "met"),
    ("CCc1cc(Cc2cnc(N)nc2N)cc(CC)c1CC", "met"),
    ("COc1cc(Cc2cnc(N)nc2N)cc(OC)c1OC", "met"),
    ("CCc1ccc(Cc2cnc(N)nc2N)cc1CC", "met"),
]
